# Test Summary: Pharmacokinetic profile of opioid antagonists after IV, PO and SC administration
# Details: male, Sprague Dawley, rat, in vivo, sc, 0.1 mg/kg
Endpoint: AUC(0-inf) (ng·h/mL)
Output spec: scalar in ng·h/mL, unitless text.

Request: Note down AUC(0-inf) recorded for O=C1CC[C@@]2(O)[C@H]3Cc4ccc(O)c5c4[C@@]2(CCN3CC2CC2)[C@H]1O5 [Naltrexone]
Result: 14.4

====

# Test Summary: Pharmacokinetic profile of opioid antagonists after IV, PO and SC administration
# Details: male, Sprague Dawley, rat, in vivo, po, 10 mg/kg
# Protocol: Blood samples were collected for 6 hours post-dose. Concentrations of each parent drug were determined by LC/MS-MS. Pharmacokinetic parameters were determined by noncompartmental analysis.
Endpoint: bioavailability
Just so you know, I need the unit written after the number.

Request: Please indicate bioavailability recorded for O=C1CC[C@@]2(O)[C@H]3Cc4ccc(O)c5c4[C@@]2(CCN3CC2CC2)[C@H]1O5 [Naltrexone]
Result: 3%
